# merged literature set: IC50 with Chymase (Homo sapiens, UniProt P23946)
# Sequence (P23946 whole entry): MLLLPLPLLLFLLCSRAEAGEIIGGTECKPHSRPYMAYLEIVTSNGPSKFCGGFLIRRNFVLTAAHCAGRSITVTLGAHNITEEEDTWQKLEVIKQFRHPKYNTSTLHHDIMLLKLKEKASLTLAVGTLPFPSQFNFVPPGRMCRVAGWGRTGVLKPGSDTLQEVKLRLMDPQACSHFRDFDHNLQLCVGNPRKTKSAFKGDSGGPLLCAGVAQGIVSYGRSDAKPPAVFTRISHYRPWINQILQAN
property.label: IC50 (nM)

// below: answered molecules
O=C1CN(c2ccccn2)C(=O)N1S(=O)(=O)c1ccc(Cl)cc1; 18000
O=C1CN(c2ccccc2)C(=O)N1S(=O)(=O)c1ccc(Cl)c(Cl)c1; 18
Cc1cccc(CCC(=O)N[C@@H](Cc2ccccc2)C(=O)CCl)c1; 430
O=C1CN(c2ccccc2)C(=O)N1C(=O)c1ccccc1; 20000
O=C1CN(c2ccccc2)C(=O)N1S(=O)(=O)c1ccc(F)cc1; 370

I = CCCCC(NC(=O)c1ccccc1)C(C)(C)C(=O)OC(=O)C(C)(C)C(CCCC)NC(=O)c1ccccc1 (centres undefined)
II = O=C1CN(c2ncccn2)C(=O)N1S(=O)(=O)c1ccc(Cl)cc1
Problem: Out of I and II , name the one with the higher IC50. Give the label of your selection.
Result: II

P = CCOc1ccccc1C[C@@H]1C(=O)N(C(=O)NC(c2ccccc2)c2ccccc2)[C@@H]1Oc1ccc(C(=O)O)cc1
Q = Cc1ccc(N2CC(=O)N(S(=O)(=O)c3ccc(Cl)cc3)C2=O)cc1C
R = COc1ccc(S(=O)(=O)N2C(=O)CN(c3ccc(C)c(C)c3)C2=O)cc1OC
S = CC(C)(C(=O)OC(=O)C(C)(C)C(NC(=O)c1ccc(C#N)cc1)c1ccccc1Cl)C(NC(=O)c1ccc(C#N)cc1)c1ccccc1Cl (centres undefined)
Problem: Arrange the 4 molecules from largest to smallest IC50. Put the labels in the requested order and list them out.
Result: S, Q, R, P
(S: 47000 nM, Q: 35 nM, R: 22 nM, P: 3.1 nM)

---

# merged literature set: IC50 with Chymase (Homo sapiens, UniProt P23946)
property.label: IC50 (µM)

// below: answered compounds
O=C(CCc1cccc(Cl)c1)N[C@@H](Cc1ccccc1)C(=O)CCl; 0.89
O=C(CCc1cccc(F)c1)N[C@@H](Cc1ccccc1)C(=O)CCl; 1.2

a = CCCCCCC(NC(=O)c1ccccc1)C(C)(C)C(=O)OC(=O)C(C)(C)C(CCCCCC)NC(=O)c1ccccc1 (stereo not given)
b = CO[C@@]1(NC(=O)Cc2ccc(O)cc2)C(=O)N2C(C(=O)OCc3cccc(C)c3)=C(CSc3nncn3C)CO[C@@H]21
Problem: Out of a and b , name the one with the higher IC50. Give the label of your selection.
Result: b
(b: 4 µM, a: 0.032 µM)

---

# merged literature set: IC50 with Chymase (Homo sapiens, UniProt P23946)
property.label: IC50 (µM)

// below: answered compounds
O=C(/C=C/c1ccccc1)N[C@@H](Cc1ccccc1)C(=O)CCl; 15
CC(C)(C(=O)OC(=O)C(C)(C)C(NC(=O)c1ccc(C#N)cc1)C1CC=CCC1)C(NC(=O)c1ccc(C#N)cc1)C1CC=CCC1 (stereo not drawn); 0.13

P = Cc1ccccc1CCC(=O)N[C@@H](Cc1ccccc1)C(=O)CCl
Q = O=C1CN(C2CCCCC2)C(=O)N1S(=O)(=O)c1ccc(Cl)cc1
R = O=C1CN(c2ccccc2)C(=O)N1S(=O)(=O)c1ccc(Br)cc1
Problem: Arrange the 3 compounds from largest to smallest IC50. Put the labels in the requested order and list them out.
Result: Q, P, R
